Cited source: ChEMBL document CHEMBL5038644

The reader will find reported Emax values listed item by item below.
Target: Apelin receptor (Homo sapiens) (UniProt P35414)
Sequence (P35414 whole entry): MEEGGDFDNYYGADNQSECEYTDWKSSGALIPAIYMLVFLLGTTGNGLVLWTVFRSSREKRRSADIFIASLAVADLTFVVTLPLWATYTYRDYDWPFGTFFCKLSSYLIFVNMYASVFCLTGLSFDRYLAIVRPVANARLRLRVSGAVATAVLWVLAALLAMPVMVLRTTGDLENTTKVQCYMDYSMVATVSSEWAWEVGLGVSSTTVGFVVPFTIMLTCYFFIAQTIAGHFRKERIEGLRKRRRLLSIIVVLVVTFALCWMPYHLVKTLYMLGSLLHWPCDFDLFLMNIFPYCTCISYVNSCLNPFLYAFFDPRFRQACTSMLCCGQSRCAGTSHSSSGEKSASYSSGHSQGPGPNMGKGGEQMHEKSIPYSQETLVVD
Experiment: Agonist activity at human APJ expressed in HEK293 cell membrane assessed as maximal efficacy for recruitment of PDZ-RhoGEF Galphai1 to cell membrane by BRET-based G protein dissociation assay relative to control
Assay type: functional
Conditions: filed as agonist
Kindly answer with a numeric value in %, unit omitted.

SMI	RESULT_UNITS	Emax
CCCC[C@H](NC(=O)[C@@H]1CCCN1C(=O)CNC(=O)[C@H](CCCCN)NC(=O)[C@@H]1CCN(S(=O)(=O)c2ccccc2[N+](=O)[O-])C/C=C/C[C@H](NC(=O)[C@H](CCCNC(=N)N)NC(=O)[C@@H]2CCC(=O)N2)C(=O)N[C@@H](CCCNC(=N)N)C(=O)N[C@@H](CC(C)C)C(=O)N[C@@H](CO)C(=O)N1)C(=O)N1CCC[C@H]1C(=O)N[C@@H](Cc1ccccc1)C(=O)O	%	92

// lookup Emax for CC(C)C[C@@H]1NC(=O)[C@H](CCCNC(=N)N)NC(=O)[C@@H](N)C/C=C\C[C@@H](C(=O)N[C@@H](CCCCN)C(=O)NCC(=O)N2CCC[C@H]2C(=O)N[C@H](Cc2ccc3ccccc3c2)C(=O)O)NC(=O)[C@H](CO)NC1=O 40

Sample CCCC[C@H](NC(=O)[C@@H]1CCCN1C(=O)CNC(=O)[C@H](CCCCN)NC(=O)[C@@H]1C/C=C\C[C@H](N)C(=O)N[C@@H](CCCNC(=N)N)C(=O)N[C@@H](CC(C)C)C(=O)N[C@@H](CO)C(=O)N1)C(=O)O — what was its Emax? 59

Field request: Emax | item: CCCC[C@H](NC(=O)[C@@H]1CCCN1C(=O)CNC(=O)[C@H](CCCCN)NC(=O)[C@@H]1CCN(S(=O)(=O)c2ccccc2[N+](=O)[O-])C/C=C/C[C@H](N)C(=O)N[C@@H](CCCNC(=N)N)C(=O)N[C@@H](CC(C)C)C(=O)N[C@@H](CO)C(=O)N1)C(=O)N1CCC[C@H]1C(=O)N[C@@H](Cc1ccccc1)C(=O)O 93
